Test system: HCC-366
Experiment: relative viability (nuclei count vs DMSO), 5 days (fraction); higher = more cells survive
Details: first compound 1.265 µM
PROPERTY NAME: relative viability

Solved entries:
MOLECULE: COc1cc(N2CCC(C(N)=O)CC2)ccc1Nc1nc(N)c(Cl)c(Nc2ccccc2S(=O)(=O)C(C)C)n1 [HG-5-88-01] + CS(=O)(=O)CCNCc1ccc(-c2ccc3ncnc(Nc4ccc(OCc5cccc(F)c5)c(Cl)c4)c3c2)o1 [Lapatinib] (partner 2 µM)
DATA VALUE: 1.08
//
MOLECULE: Clc1ccc(Nc2nnc(Cc3ccncc3)c3ccccc23)cc1 [Vatalanib] + CC(=O)c1c(C)c2cnc(Nc3ccc(N4CCNCC4)cn3)nc2n(C2CCCC2)c1=O [Palbociclib] (partner 0.5 µM)
DATA VALUE: 0.391

Enquiry: For Clc1ccc(Nc2nnc(Cc3ccncc3)c3ccccc23)cc1 [Vatalanib] + Cc1nc(NC(=O)N2CCC[C@H]2C(N)=O)sc1-c1ccnc(C(C)(C)C(F)(F)F)c1 [Alpelisib] (partner 2 µM) , what is its reported relative viability?
Return: 0.33

---

Provide the recorded relative viability for the entries that follow.
System: LC-2-ad
Test: relative viability (nuclei count vs DMSO), 5 days (fraction); higher = more cells survive
Conditions: first compound 0.3162 µM
Numbers only.

COMPOUND: CC(C)Oc1cc(Nc2nc(N[C@@H](C)c3ccc(F)cn3)ncc2Cl)n[nH]1 [AZ23] + CC(C)C[C@H](NC(=O)[C@H](Cc1ccccc1)NC(=O)c1cnccn1)B(O)O [Bortezomib] (partner 0.002 µM)
PROPERTY NAME: relative viability
DATA VALUE: 1.01

Would you mind listing relative viability for each of the following compounds?
1. CC(C)Oc1cc(Nc2nc(N[C@@H](C)c3ccc(F)cn3)ncc2Cl)n[nH]1 [AZ23] + CC(=O)Nc1cccc(-n2c(=O)n(C3CC3)c(=O)c3c(Nc4ccc(I)cc4F)n(C)c(=O)c(C)c32)c1 [Trametinib] (partner 0.02 µM)
2. CC(C)Oc1cc(Nc2nc(N[C@@H](C)c3ccc(F)cn3)ncc2Cl)n[nH]1 [AZ23] + Cc1cc(Nc2cc(N3CCN(C)CC3)nc(Sc3ccc(NC(=O)C4CC4)cc3)n2)n[nH]1 [Tozasertib] (partner 0.1 µM)
3. CC(C)Oc1cc(Nc2nc(N[C@@H](C)c3ccc(F)cn3)ncc2Cl)n[nH]1 [AZ23] + Cc1nc(NC(=O)N2CCC[C@H]2C(N)=O)sc1-c1ccnc(C(C)(C)C(F)(F)F)c1 [Alpelisib] (partner 2 µM)

Return:
[0.868, 0.452, 0.892]

---

System: NCI-H1792
Assay: relative viability (nuclei count vs DMSO), 5 days (fraction); higher = more cells survive
Settings: first compound 0.04 µM
Provide the recorded relative viability for the entries that follow.
Answers are plain numbers.

Would you mind listing relative viability for each of the following compounds?
1. C[C@@H]1CN(CC(=O)Nc2ccc3c(c2)Cc2cccc(-c4cc(=O)cc(N5CCOCC5)o4)c2S3)C[C@H](C)O1 + NC(=O)Nc1cc(-c2cccc(F)c2)sc1C(=O)N[C@H]1CCCNC1 [AZD7762] (partner 0.2 µM)
2. Clc1ccc(Nc2nnc(Cc3ccncc3)c3ccccc23)cc1 [Vatalanib] + NC(=O)Nc1cc(-c2cccc(F)c2)sc1C(=O)N[C@H]1CCCNC1 [AZD7762] (partner 0.2 µM)
3. Clc1ccc(Nc2nnc(Cc3ccncc3)c3ccccc23)cc1 [Vatalanib] + O=C(c1cc(Cc2n[nH]c(=O)c3ccccc23)ccc1F)N1CCN(C(=O)C2CC2)CC1 [Olaparib] (partner 8 µM)
4. COc1cc(N2CCC(C(N)=O)CC2)ccc1Nc1nc(N)c(Cl)c(Nc2ccccc2S(=O)(=O)C(C)C)n1 [HG-5-88-01] + Cc1nc(Nc2ncc(C(=O)Nc3c(C)cccc3Cl)s2)cc(N2CCN(CCO)CC2)n1 [Dasatinib] (partner 0.075 µM)
5. Clc1ccc(Nc2nnc(Cc3ccncc3)c3ccccc23)cc1 [Vatalanib] + N=C(N)NC(=N)NCCc1ccccc1 [Phenformin] (partner 250 µM)

Return:
1: 0.662; 2: 0.723; 3: 0.52; 4: 0.959; 5: 0.257

---

Tested on: NCI-H1792
Assay: relative viability (nuclei count vs DMSO), 5 days (fraction); higher = more cells survive
Settings: first compound 4 µM
PROPERTY NAME: relative viability
Give bare numbers.

COMPOUND: C[C@@H]1CN(CC(=O)Nc2ccc3c(c2)Cc2cccc(-c4cc(=O)cc(N5CCOCC5)o4)c2S3)C[C@H](C)O1 + CCNC(=O)c1noc(-c2cc(C(C)C)c(O)cc2O)c1-c1ccc(CN2CCOCC2)cc1 [Luminespib] (partner 0.01 µM)
DATA VALUE: 0.333

Enquiry: For C[C@@H]1CN(CC(=O)Nc2ccc3c(c2)Cc2cccc(-c4cc(=O)cc(N5CCOCC5)o4)c2S3)C[C@H](C)O1 + CC(C)C[C@H](NC(=O)[C@H](Cc1ccccc1)NC(=O)c1cnccn1)B(O)O [Bortezomib] (partner 0.002 µM) , what is its reported relative viability?
Return: 0.859

---

Provide the recorded relative viability for the entries that follow.
Tested on: COR-L 105
Experiment: relative viability (nuclei count vs DMSO), 5 days (fraction); higher = more cells survive
Details: first compound 0.04 µM
Answers are plain numbers.

MOLECULE: COc1cc(N2CCC(C(N)=O)CC2)ccc1Nc1nc(N)c(Cl)c(Nc2ccccc2S(=O)(=O)C(C)C)n1 [HG-5-88-01] + N=C(N)NC(=N)NCCc1ccccc1 [Phenformin] (partner 250 µM)
DATA VALUE: 0.61

Would you mind listing relative viability for each of the following molecules?
1. C[C@@H]1CN(CC(=O)Nc2ccc3c(c2)Cc2cccc(-c4cc(=O)cc(N5CCOCC5)o4)c2S3)C[C@H](C)O1 + COc1cccc2cc(-c3nc([C@H]4CC[C@H](C(=O)O)CC4)n4ncnc(N)c34)[nH]c12 [OSI-027] (partner 0.5 µM)
2. COc1cc(N2CCC(C(N)=O)CC2)ccc1Nc1nc(N)c(Cl)c(Nc2ccccc2S(=O)(=O)C(C)C)n1 [HG-5-88-01] + C[C@@H](Oc1cc(-c2cnn(C3CCNCC3)c2)cnc1N)c1c(Cl)ccc(F)c1Cl [Crizotinib] (partner 1 µM)
3. C[C@@H]1CN(CC(=O)Nc2ccc3c(c2)Cc2cccc(-c4cc(=O)cc(N5CCOCC5)o4)c2S3)C[C@H](C)O1 + C[C@]1(O)C[C@@H](c2nc(-c3ccc4ccc(-c5ccccc5)nc4c3)c3c(N)nccn32)C1 [Linsitinib] (partner 1 µM)

Return:
0.728
0.855
1.01

---

Test system: NCI-H2009
Test: relative viability (nuclei count vs DMSO), 5 days (fraction); higher = more cells survive
Settings: first compound 4 µM
Provide the recorded relative viability for the entries that follow.

COMPOUND: COc1cc(N2CCC(C(N)=O)CC2)ccc1Nc1nc(N)c(Cl)c(Nc2ccccc2S(=O)(=O)C(C)C)n1 [HG-5-88-01] + Nc1ncn([C@H]2C[C@H](O)[C@@H](CO)O2)c(=O)n1 [Decitabine] (partner 2 µM)
relative viability: 0.377
--
COMPOUND: COc1cc(N2CCC(C(N)=O)CC2)ccc1Nc1nc(N)c(Cl)c(Nc2ccccc2S(=O)(=O)C(C)C)n1 [HG-5-88-01] + C[C@@H](Oc1cc(-c2cnn(C3CCNCC3)c2)cnc1N)c1c(Cl)ccc(F)c1Cl [Crizotinib] (partner 1 µM)
relative viability: 0.853
--
COMPOUND: C[C@@H]1CN(CC(=O)Nc2ccc3c(c2)Cc2cccc(-c4cc(=O)cc(N5CCOCC5)o4)c2S3)C[C@H](C)O1 + CC(=O)c1c(C)c2cnc(Nc3ccc(N4CCNCC4)cn3)nc2n(C2CCCC2)c1=O [Palbociclib] (partner 0.5 µM)
relative viability: 0.206

Proceeding to the next compound to report its relative viability.
Enquiry: For C[C@@H]1CN(CC(=O)Nc2ccc3c(c2)Cc2cccc(-c4cc(=O)cc(N5CCOCC5)o4)c2S3)C[C@H](C)O1 + O=C(CCCCCCC(=O)Nc1ccccc1)NO [Vorinostat] (partner 1 µM) , what is its reported relative viability?
Return: 0.497

---

Provide the recorded relative viability for the entries that follow.
Test system: A-427
Test: relative viability (nuclei count vs DMSO), 5 days (fraction); higher = more cells survive
Settings: first compound 0.4 µM
One number for each entry.

COMPOUND: Clc1ccc(Nc2nnc(Cc3ccncc3)c3ccccc23)cc1 [Vatalanib] + Nc1ncn([C@H]2C[C@H](O)[C@@H](CO)O2)c(=O)n1 [Decitabine] (partner 2 µM)
TARGET DESC: A-427
PROPERTY NAME: relative viability
DATA VALUE: 0.601
//
COMPOUND: COc1cc(N2CCC(C(N)=O)CC2)ccc1Nc1nc(N)c(Cl)c(Nc2ccccc2S(=O)(=O)C(C)C)n1 [HG-5-88-01] + CC(=O)c1c(C)c2cnc(Nc3ccc(N4CCNCC4)cn3)nc2n(C2CCCC2)c1=O [Palbociclib] (partner 0.5 µM)
TARGET DESC: A-427
PROPERTY NAME: relative viability
DATA VALUE: 0.541
//
COMPOUND: Clc1ccc(Nc2nnc(Cc3ccncc3)c3ccccc23)cc1 [Vatalanib] + NC(=O)Nc1cc(-c2cccc(F)c2)sc1C(=O)N[C@H]1CCCNC1 [AZD7762] (partner 0.2 µM)
TARGET DESC: A-427
PROPERTY NAME: relative viability
DATA VALUE: 0.761
//
COMPOUND: COc1cc(N2CCC(C(N)=O)CC2)ccc1Nc1nc(N)c(Cl)c(Nc2ccccc2S(=O)(=O)C(C)C)n1 [HG-5-88-01] + CC1(C)CCC(c2ccc(Cl)cc2)=C(CN2CCN(c3ccc(C(=O)NS(=O)(=O)c4ccc(N[C@H](CCN5CCOCC5)CSc5ccccc5)c(S(=O)(=O)C(F)(F)F)c4)cc3)CC2)C1 [Navitoclax] (partner 0.5 µM)
TARGET DESC: A-427
PROPERTY NAME: relative viability
DATA VALUE: 0.956
//
COMPOUND: COc1cc(N2CCC(C(N)=O)CC2)ccc1Nc1nc(N)c(Cl)c(Nc2ccccc2S(=O)(=O)C(C)C)n1 [HG-5-88-01] + C[C@]1(O)C[C@@H](c2nc(-c3ccc4ccc(-c5ccccc5)nc4c3)c3c(N)nccn32)C1 [Linsitinib] (partner 1 µM)
TARGET DESC: A-427
PROPERTY NAME: relative viability
DATA VALUE: 1.15

Would you mind listing relative viability for each of the following compounds?
1. COc1cc(N2CCC(C(N)=O)CC2)ccc1Nc1nc(N)c(Cl)c(Nc2ccccc2S(=O)(=O)C(C)C)n1 [HG-5-88-01] + C[C@@H](Oc1cc(-c2cnn(C3CCNCC3)c2)cnc1N)c1c(Cl)ccc(F)c1Cl [Crizotinib] (partner 1 µM)
2. Clc1ccc(Nc2nnc(Cc3ccncc3)c3ccccc23)cc1 [Vatalanib] + Cc1nc(Nc2ncc(C(=O)Nc3c(C)cccc3Cl)s2)cc(N2CCN(CCO)CC2)n1 [Dasatinib] (partner 0.075 µM)
3. Clc1ccc(Nc2nnc(Cc3ccncc3)c3ccccc23)cc1 [Vatalanib] + O=C(c1cc(Cc2n[nH]c(=O)c3ccccc23)ccc1F)N1CCN(C(=O)C2CC2)CC1 [Olaparib] (partner 8 µM)
4. Clc1ccc(Nc2nnc(Cc3ccncc3)c3ccccc23)cc1 [Vatalanib] + CC(C)C[C@H](NC(=O)[C@H](Cc1ccccc1)NC(=O)c1cnccn1)B(O)O [Bortezomib] (partner 0.002 µM)
5. C[C@@H]1CN(CC(=O)Nc2ccc3c(c2)Cc2cccc(-c4cc(=O)cc(N5CCOCC5)o4)c2S3)C[C@H](C)O1 + Nc1ncn([C@H]2C[C@H](O)[C@@H](CO)O2)c(=O)n1 [Decitabine] (partner 2 µM)
6. C[C@@H]1CN(CC(=O)Nc2ccc3c(c2)Cc2cccc(-c4cc(=O)cc(N5CCOCC5)o4)c2S3)C[C@H](C)O1 + COc1cccc2cc(-c3nc([C@H]4CC[C@H](C(=O)O)CC4)n4ncnc(N)c34)[nH]c12 [OSI-027] (partner 0.5 µM)
7. Clc1ccc(Nc2nnc(Cc3ccncc3)c3ccccc23)cc1 [Vatalanib] + C[C@]1(O)C[C@@H](c2nc(-c3ccc4ccc(-c5ccccc5)nc4c3)c3c(N)nccn32)C1 [Linsitinib] (partner 1 µM)
8. C[C@@H]1CN(CC(=O)Nc2ccc3c(c2)Cc2cccc(-c4cc(=O)cc(N5CCOCC5)o4)c2S3)C[C@H](C)O1 + N=C(N)NC(=N)NCCc1ccccc1 [Phenformin] (partner 250 µM)

Return:
[0.951, 0.638, 0.768, 0.96, 0.562, 0.482, 1.13, 0.284]

Would you mind listing relative viability for each of the following compounds?
1. COc1cc(N2CCC(C(N)=O)CC2)ccc1Nc1nc(N)c(Cl)c(Nc2ccccc2S(=O)(=O)C(C)C)n1 [HG-5-88-01] + Cc1cc(Nc2cc(N3CCN(C)CC3)nc(Sc3ccc(NC(=O)C4CC4)cc3)n2)n[nH]1 [Tozasertib] (partner 0.1 µM)
2. COc1cc(N2CCC(C(N)=O)CC2)ccc1Nc1nc(N)c(Cl)c(Nc2ccccc2S(=O)(=O)C(C)C)n1 [HG-5-88-01] + Nc1nc2[nH]cc(CCc3ccc(C(=O)N[C@@H](CCC(=O)O)C(=O)O)cc3)c2c(=O)[nH]1 [Pemetrexed] (partner 0.2 µM)

Return:
1: 0.158; 2: 1

Would you mind listing relative viability for each of the following compounds?
1. COc1cc(N2CCC(C(N)=O)CC2)ccc1Nc1nc(N)c(Cl)c(Nc2ccccc2S(=O)(=O)C(C)C)n1 [HG-5-88-01] + N=C(N)NC(=N)NCCc1ccccc1 [Phenformin] (partner 250 µM)
2. COc1cc(N2CCC(C(N)=O)CC2)ccc1Nc1nc(N)c(Cl)c(Nc2ccccc2S(=O)(=O)C(C)C)n1 [HG-5-88-01] + O=C(c1cc(Cc2n[nH]c(=O)c3ccccc23)ccc1F)N1CCN(C(=O)C2CC2)CC1 [Olaparib] (partner 8 µM)

Return:
1. 0.344
2. 0.762
